Tested On: Kinase A and Spo0F (Bacillus subtilis)
Construct: made in house; host or cells: recombinant E. coli
Procedure Text: Autophosphorylation of Kinase A and Transphosphorylation of Spo0F Assay (HPK in vitro assay)
Type: biochemical
Test Parameters: Table 1, KinA/Spo0F phosphorylation, in µM
Measurement Name: IC50

1) N=C(N)c1ccc2nc(-c3cc(Cl)cc(Cl)c3O)[nH]c2c1
155
2) N#CCCN(CCC#N)c1ccc(-c2nc3ccc(C(=N)N)cc3[nH]2)cc1
35.6
3) COc1cc(OC)c(-c2nc3ccc(C(=N)N)cc3[nH]2)cc1Br
66

====

Tested On: Kinase A and Spo0F (Bacillus subtilis, UniProt P16497)
Construct: made in house; host or cells: recombinant E. coli
Sequence (P16497 whole entry): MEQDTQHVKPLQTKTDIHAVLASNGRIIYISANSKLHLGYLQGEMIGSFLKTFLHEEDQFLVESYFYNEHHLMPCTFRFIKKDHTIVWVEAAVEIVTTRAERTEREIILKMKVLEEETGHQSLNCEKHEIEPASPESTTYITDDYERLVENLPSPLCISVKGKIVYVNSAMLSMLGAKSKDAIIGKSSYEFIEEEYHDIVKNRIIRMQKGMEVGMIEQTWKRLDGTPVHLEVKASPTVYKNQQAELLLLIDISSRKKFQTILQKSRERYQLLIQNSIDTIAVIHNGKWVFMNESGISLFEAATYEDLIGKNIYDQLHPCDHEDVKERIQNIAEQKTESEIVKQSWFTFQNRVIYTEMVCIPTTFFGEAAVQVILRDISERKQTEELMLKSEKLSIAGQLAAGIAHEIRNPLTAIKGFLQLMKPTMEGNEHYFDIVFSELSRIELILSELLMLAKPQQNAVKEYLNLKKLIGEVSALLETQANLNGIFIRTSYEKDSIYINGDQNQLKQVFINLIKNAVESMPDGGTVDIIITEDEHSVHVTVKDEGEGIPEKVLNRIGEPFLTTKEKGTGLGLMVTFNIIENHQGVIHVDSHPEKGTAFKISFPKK
Procedure Text: Autophosphorylation of Kinase A and Transphosphorylation of Spo0F Assay (HPK in vitro assay)
Assay type: biochemical
Test Parameters: Table 1, KinA/Spo0F phosphorylation, in µM
Rule for this label: True means IC50 is less than 40; False means IC50 is at least 40.

1) N=C(N)c1ccc2nc(-c3cc(Cl)cc(Cl)c3)[nH]c2c1
False
2) N=C(N)c1ccc2nc(-c3cc([N+](=O)[O-])cc(Br)c3O)[nH]c2c1
False
3) CCCCN(CCCC)c1ccc(-c2nc3ccc(C(=N)N)cc3[nH]2)cc1
True
4) N=C(N)c1ccc2nc(-c3cc(-c4ccccc4)cc(-c4ccccc4)c3)[nH]c2c1
True
5) CC(C)(C)c1cc(-c2nc3ccc(C(=N)N)cc3[nH]2)c(O)c(C(C)(C)C)c1
True
6) CCC(C)(C)c1ccc(-c2nc3ccc(C(=N)N)cc3[nH]2)cc1
True
7) N=C(N)c1ccc2nc(-c3ccc(N(Cc4ccccc4)Cc4ccccc4)cc3)[nH]c2c1
True
8) CCCCCCCCCCOc1ccc(-c2nc3ccc(C(=N)N)cc3[nH]2)cc1OCCCCCCCCCC
True
